Source listed as ChEMBL document CHEMBL4004878.

- System: Haemophilus influenzae
- assay.notes: Bactericidal activity against azithromycin-susceptible Haemophilus influenzae ATCC 49247 incubated for 20 to 24 hrs followed by sub-culturing for 24 hrs in absence of compound
- Format: functional
Entries and their measured MBC follow.
The response must be a number in µg/mL with no trailing unit.

Sample answers from the record:
CC[C@H]1OC(=O)[C@@](C)(F)C(=O)[C@H](C)[C@@H](O[C@@H]2O[C@H](C)C[C@H](N(C)C)[C@H]2O)[C@](C)(OC)C[C@@H](C)/C(=N\OC/C=C/c2cncc(C(N)=O)c2)[C@H](C)[C@H]2OC(=O)O[C@@]21C: 32
CC[C@H]1OC(=O)[C@H](C)[C@@H](O[C@H]2C[C@@](C)(OC)[C@@H](O)[C@H](C)O2)[C@H](C)[C@@H](O[C@@H]2O[C@H](C)C[C@H](N(C)C)[C@H]2O)[C@](C)(OC)C[C@@H](C)C(=O)[C@H](C)[C@@H](O)[C@]1(C)O: 32
CC[C@H]1OC(=O)[C@H](C)C(=O)[C@H](C)[C@@H](O[C@@H]2O[C@H](C)C[C@H](N(C)C)[C@H]2O)[C@](C)(OC)C[C@@H](C)C(=O)[C@H](C)[C@H]2N(CCCCn3cnc(-c4cccnc4)c3)C(=O)O[C@]12C: 8

Ask | So what does the record say about MBC for CC[C@H]1OC(=O)[C@@](C)(F)C(=O)[C@H](C)[C@@H](O[C@@H]2O[C@H](C)C[C@H](N(C)C)[C@H]2O)[C@](C)(OC)C[C@@H](C)/C(=N\OC/C=C/c2cncc(N)c2)[C@H](C)[C@H]2OC(=O)O[C@@]21C ?
Reply | 32

* * *

- System: Streptococcus pyogenes
- assay.notes: Bactericidal activity against Streptococcus pyogenes 01-968 expressing inducible ermA incubated for 20 to 24 hrs followed by sub-culturing for 24 hrs in absence of compound
- Format: functional
A collection of molecules and their measured MBC
Give a bare numeral; the unit µg/mL is implied.

Some molecules with recorded MBC:
C=CCN(C)[C@H]1C[C@@H](C)O[C@@H](O[C@@H]2[C@@H](C)C(=O)[C@@H](C)C(=O)O[C@H](CC)[C@@]3(C)OC(=O)O[C@@H]3[C@@H](C)/C(=N/OC/C=C/c3cnc4ccccc4c3)[C@H](C)C[C@@]2(C)OC)[C@@H]1O: 4
CC[C@H]1OC(=O)[C@@](C)(F)C(=O)[C@H](C)[C@@H](O[C@@H]2O[C@H](C)C[C@H](N(C)C)[C@H]2O)[C@](C)(OC)C[C@@H](C)/C(=N\OC/C=C/c2ccc3ncccc3c2)[C@H](C)[C@H]2OC(=O)O[C@@]21C: 1
CC[C@H]1OC(=O)[C@H](C)[C@@H](OC(=O)Cc2ccccn2)[C@H](C)[C@@H](O[C@@H]2O[C@H](C)C[C@H](N(C)C)[C@H]2O)[C@](C)(OC)C[C@@H](C)/C(=N\OC)[C@H](C)[C@H]2OC(=O)O[C@@]21C: 2

Let us examine a further case.
Ask | Given the molecule CC[C@H]1OC(=O)[C@@](C)(F)C(=O)[C@H](C)[C@@H](O[C@@H]2O[C@H](C)C[C@H](N(C)C)[C@H]2O)[C@](C)(OC)C[C@@H](C)/C(=N\OC/C=C/c2cnc3ccccc3c2)[C@H](C)[C@H]2OC(=O)O[C@@]21C , what is its reported MBC?
Reply | 2

* * *

- System: Moraxella catarrhalis
- assay.notes: Ratio of MBC to MIC against erythromycin-susceptible Moraxella catarrhalis 13L332
- Type: functional
measurement.name: Ratio
Reply with the value as a number alone.

CC[C@H]1OC(=O)[C@H](C)[C@@H](OC(=O)Cc2ccccn2)[C@H](C)[C@@H](O[C@@H]2O[C@H](C)C[C@H](N(C)C)[C@H]2O)[C@](C)(OC)C[C@@H](C)/C(=N\OC/C=C/c2cccnc2)[C@H](C)[C@H]2OC(=O)O[C@@]21C: 2

With those in mind, consider the next compound.
Ask | Given the compound CC[C@H]1OC(=O)[C@H](C)[C@@H](O[C@H]2C[C@@](C)(OC)[C@@H](O)[C@H](C)O2)[C@H](C)[C@@H](O[C@@H]2O[C@H](C)C[C@H](N(C)C)[C@H]2O)[C@](C)(OC)C[C@@H](C)C(=O)[C@H](C)[C@@H](O)[C@]1(C)O , what is its reported Ratio?
Reply | 4

* * *

- Tested on: Haemophilus influenzae
- assay.notes: Bactericidal activity against azithromycin susceptible/ampicillin-resistant Haemophilus influenzae 11P307 incubated for 20 to 24 hrs followed by sub-culturing for 24 hrs in absence of compound
- Type: functional
Collected MBC values appear next to each entry.

Consider the following illustrative entries.
CC[C@H]1OC(=O)[C@H](C)C(=O)[C@H](C)[C@@H](O[C@@H]2O[C@H](C)C[C@H](N(C)C)[C@H]2O)[C@](C)(OC)C[C@@H](C)/C(=N\OCC#Cc2cncc3ccccc23)[C@H](C)[C@H]2OC(=O)O[C@@]21C: > 128 µg/mL
CC[C@H]1OC(=O)[C@@](C)(F)C(=O)[C@H](C)[C@@H](O[C@@H]2O[C@H](C)C[C@H](N(C)C)[C@H]2O)[C@](C)(OC)C[C@@H](C)/C(=N\OCC#Cc2cncc3ccccc23)[C@H](C)[C@H]2OC(=O)O[C@@]21C: > 64 µg/mL
CC[C@H]1OC(=O)[C@H](C)C(=O)[C@H](C)[C@@H](O[C@@H]2O[C@H](C)C[C@H](N(C)C)[C@H]2O)[C@](C)(OC)C[C@@H](C)/C(=N\OC/C=C/c2cnc3ccccc3c2)[C@H](C)[C@H]2OC(=O)O[C@@]21C: 64 to 128 µg/mL
CC[C@H]1OC(=O)[C@@](C)(F)C(=O)[C@H](C)[C@@H](O[C@@H]2O[C@H](C)C[C@H](N(C)C)[C@H]2O)[C@](C)(OC)C[C@@H](C)/C(=N\OC/C=C/c2cncc(N)c2)[C@H](C)[C@H]2OC(=O)O[C@@]21C: 32 µg/mL
CC[C@H]1OC(=O)[C@@](C)(F)C(=O)[C@H](C)[C@@H](O[C@@H]2O[C@H](C)C[C@H](N(C)C)[C@H]2O)[C@](C)(OC)C[C@@H](C)/C(=N\OC/C=C/c2cncc(C(N)=O)c2)[C@H](C)[C@H]2OC(=O)O[C@@]21C: 16 µg/mL

Ask | Need MBC, item C=CCN(C)[C@H]1C[C@@H](C)O[C@@H](O[C@@H]2[C@@H](C)C(=O)[C@@H](C)C(=O)O[C@H](CC)[C@@]3(C)OC(=O)O[C@@H]3[C@@H](C)/C(=N/OC/C=C/c3cnc4ccccc4c3)[C@H](C)C[C@@]2(C)OC)[C@@H]1O
Reply | > 256 µg/mL

Ask | Which MBC is listed for CC[C@H]1OC(=O)[C@@](C)(F)C(=O)[C@H](C)[C@@H](O[C@@H]2O[C@H](C)C[C@H](N(C)C)[C@H]2O)[C@](C)(OC)C[C@@H](C)/C(=N\OC/C=C/c2ccc3ncccc3c2)[C@H](C)[C@H]2OC(=O)O[C@@]21C ?
Reply | > 64 µg/mL

Ask | Using the record for CC[C@H]1OC(=O)[C@H](C)C(=O)[C@H](C)[C@@H](O[C@@H]2O[C@H](C)C[C@H](N(C)C)[C@H]2O)[C@](C)(OC)C[C@@H](C)C(=O)[C@H](C)[C@H]2N(CCCCn3cnc(-c4cccnc4)c3)C(=O)O[C@]12C , report its MBC.
Reply | 4 µg/mL

Ask | # query: MBC of entry CC[C@H]1OC(=O)[C@H](C)[C@@H](O[C@H]2C[C@@](C)(OC)[C@@H](O)[C@H](C)O2)[C@H](C)[C@@H](O[C@@H]2O[C@H](C)C[C@H](N(C)C)[C@H]2O)[C@](C)(OC)C[C@@H](C)C(=O)[C@H](C)[C@@H](O)[C@]1(C)O
Reply | 8 to 16 µg/mL

Ask | Quick one: MBC of CC[C@H]1OC(=O)[C@@](C)(F)C(=O)[C@H](C)[C@@H](O[C@@H]2O[C@H](C)C[C@H](N(C)C)[C@H]2O)[C@](C)(OC)C[C@@H](C)/C(=N\OC/C=C/c2cnc3ccccc3c2)[C@H](C)[C@H]2OC(=O)O[C@@]21C ?
Reply | > 64 µg/mL

* * *

- Tested on: Streptococcus pneumoniae
- assay.notes: Bacteriostatic activity against […] Streptococcus pneumoniae ATCC 49619 after 20 to 24 hrs by two-fold microbroth dilution method
- Assay type: functional
measurement.name: MIC (µg/mL)
// return numeric value only (unit: µg/mL, not printed)

CC[C@H]1OC(=O)[C@@](C)(F)C(=O)[C@H](C)[C@@H](O[C@@H]2O[C@H](C)C[C@H](N(C)C)[C@H]2O)[C@](C)(OC)C[C@@H](C)/C(=N\OC/C=C/c2cncc(N)c2)[C@H](C)[C@H]2OC(=O)O[C@@]21C: 0.125

Ask | Query (compound): CC[C@H]1OC(=O)[C@H](C)[C@H](OC(=O)c2ccccn2)[C@H](C)[C@@H](O[C@@H]2O[C@H](C)C[C@H](N(C)C)[C@H]2O)[C@](C)(OC)C[C@@H](C)/C(=N\OC)[C@H](C)[C@H]2OC(=O)O[C@@]21C ; field requested: MIC
Reply | 64

Ask | Item under review: CC[C@H]1OC(=O)[C@@](C)(F)[C@H](OC(=O)Cc2ccccn2)[C@H](C)[C@@H](O[C@@H]2O[C@H](C)C[C@H](N(C)C)[C@H]2O)[C@](C)(OC)C[C@@H](C)/C(=N\OC)[C@H](C)[C@H]2OC(=O)O[C@@]21C . Reported MIC?
Reply | 64
